Molecular target: T1, recombinant, soluble human ASGR-1 (human, UniProt P07306 62-291)
T1 construct: biotinylated in the binning assay; also called soluble huASGR-1; Soluble ASGR-1 (Amgen)
T1 sequence: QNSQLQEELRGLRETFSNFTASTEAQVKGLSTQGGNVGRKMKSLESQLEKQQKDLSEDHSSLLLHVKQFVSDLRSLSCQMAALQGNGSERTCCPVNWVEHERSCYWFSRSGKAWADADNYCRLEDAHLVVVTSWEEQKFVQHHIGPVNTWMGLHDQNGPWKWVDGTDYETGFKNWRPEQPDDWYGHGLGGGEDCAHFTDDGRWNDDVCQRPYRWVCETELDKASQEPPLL
Assay: Octet BLI dissociation, pH 7.4 minus calcium
measurement.type: % Change Compared to pH 7.4 + Calcium (%)
Use % as the unit, but write only the number.

// lookup % Change Compared to pH 7.4 + Calcium for 52D10 (antibody, V domains shown, hybridoma mAb) VH: QVQLVESGGGVVQPGRSLRLSCAASGFTFSSYGMHWVRQAPGKGLEWVALIWYDGSNKYHADSVKGRFTISRDNSKNTLYLQMNSLRAEDTAVYYCARRYSSSWSGGMDVWGQGTTVTVSS VL: DVMMTQIPLSLSVTPGQPASISCKSSQSLLHSEGKTYLYWYLQKPGQPPQLLIFEVSNRVSGVPDRFSGRGSGTDFTLKISRVEAEDVGVYYCMQSIQYPITFGQGTRLEIK 21

Fill in the blank: the reported % Change Compared to pH 7.4 + Calcium of 191A10 (antibody, V domains shown, hybridoma mAb) VH: QVQLVESGGGVVQPGRSLRLSCAASGFTFSSYGMHWVRQAPGKGLEWVAVIWYDGSNKNYADSVKGRFTISRDNSKNTLYLQMNSLRAEDTAMYYCARDQGVGYDGLDVWGQGTSVTVSS VL: DIQMTQSPSSLSASVGDRVTITCRASQGIGKYLAWFQQKPGKAPKSLIYAASSLQSGVPSKFSGSGYGTDFTLTISSLQPENFAIYYCQQYSTYPLTFGGGTKVEIK is ____. 0

I would be grateful if you could share the reported % Change Compared to pH 7.4 + Calcium for 204G6 (antibody, V domains shown, hybridoma mAb) VH: QVQLVESGGGVVQPGRSLRLSCTASGFTFSSYGMHWVRQAPGKGLEWVAVIWYDGSNKNYADSVKGRFTISRDNSKNTLYLQMNSLRAEDTAVYYCARDRGVGYDGMDVWGQGTTVTVSS VL: DIRMTQSPSSLSASVGDRITITCRTSQGIGNYLAWFQQKPGKAPKSLIYAASSLQSGVPSRFSGSGSGTDFTLTISSLQPEDFATYYCQHYLSYPLTFGGGTKVEIK . -5

Entry 65D5 (antibody, V domains shown, hybridoma mAb) VH: QVQLVQSGAEVKKPGASVKVSCKASGYTFPSYGISWVRQAPGQGLEWMGWISAYSGNTNYAQKLQGRVTMTTDTSTSTAYMELRSLRSDDTAVYFCARGEAVAVFDPWGQGTLVTVSS VL: DIQMTQSPSSLSASVGDRVTITCRASQDINNYLAWFQQKPGKAPRSLIYAASSLHSGVPSQFSASGSGSDFTLTISSLQPEDFATYYCPLYKSYPLTFGPGTKVDIK : reported % Change Compared to pH 7.4 + Calcium = ? 34

Query (binder): 198D2 (antibody, V domains shown, hybridoma mAb) VH: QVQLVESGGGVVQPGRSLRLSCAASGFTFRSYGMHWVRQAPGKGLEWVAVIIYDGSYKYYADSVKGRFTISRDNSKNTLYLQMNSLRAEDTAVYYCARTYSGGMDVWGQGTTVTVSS VL: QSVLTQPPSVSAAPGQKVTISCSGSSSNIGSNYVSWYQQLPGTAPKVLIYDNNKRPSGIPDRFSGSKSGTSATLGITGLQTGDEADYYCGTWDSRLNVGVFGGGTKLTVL ; field requested: % Change Compared to pH 7.4 + Calcium -8
